Molecular target: UniProt:P03366
parameter: IC50

Value (IC50, UniProt:P03366) for record CC(C)(C)CC(=O)C[C@@H](CC1CCCCC1)[C@@H](O)C[C@@H](Cc1ccccc1)C(=O)N[C@H]1c2ccccc2C[C@H]1O = 11.5 to 58 nM
